experimentNotes: CREB reporter modulators under forskolin, primary screen, cell-based, PC12, CRE-LacZ reporter, forskolin-stimulated (AID 1146);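 further: PC12 cells with 6xCRE LacZ reporter stimulated by forskolin 10 µM; beta-galactosidase reporter signal reflecting CREB driven transcription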
runParameters: luminescence, 4.5 h, higher = more signal, called active from +8 up or from −8 down
measuredProperty: z-score
Answers are plain numbers.

Guide cases for z-score, answers given:
testSmiles | z-score
C[N+](C)(C)CCCCNC(=O)[C@@H]1C[C@@H]2C(=O)NCC(=O)N2[C@@H]1c1cccc(OCCO)c1 | -0.689
C=C(/C(=C/C[C@H](OC(C)=O)c1cccc(OCCO)c1)c1cc(C(=O)OC)ccc1OC)C(C)C | -1.02
CCOC(=O)C[C@H]1[C@H](OC(=O)Cc2ccc3c(c2)OCO3)[C@@H](NC(=O)c2ccc3ccccc3c2)c2cc(OCCCO)ccc2N1C(=O)c1ccc2ccccc2n1 | -1.37

--- query ---
-- ask z-score lookup needed for C=C(COC)C(=O)CC[C@H](OC(=O)c1cccnc1)c1cccc(OCCO)c1 , thanks.
-- reply 0.309
